- targetOfAssay: Thioredoxin reductase (Plasmodium falciparum 3D7, UniProt P61076)
- Sequence (P61076 whole entry): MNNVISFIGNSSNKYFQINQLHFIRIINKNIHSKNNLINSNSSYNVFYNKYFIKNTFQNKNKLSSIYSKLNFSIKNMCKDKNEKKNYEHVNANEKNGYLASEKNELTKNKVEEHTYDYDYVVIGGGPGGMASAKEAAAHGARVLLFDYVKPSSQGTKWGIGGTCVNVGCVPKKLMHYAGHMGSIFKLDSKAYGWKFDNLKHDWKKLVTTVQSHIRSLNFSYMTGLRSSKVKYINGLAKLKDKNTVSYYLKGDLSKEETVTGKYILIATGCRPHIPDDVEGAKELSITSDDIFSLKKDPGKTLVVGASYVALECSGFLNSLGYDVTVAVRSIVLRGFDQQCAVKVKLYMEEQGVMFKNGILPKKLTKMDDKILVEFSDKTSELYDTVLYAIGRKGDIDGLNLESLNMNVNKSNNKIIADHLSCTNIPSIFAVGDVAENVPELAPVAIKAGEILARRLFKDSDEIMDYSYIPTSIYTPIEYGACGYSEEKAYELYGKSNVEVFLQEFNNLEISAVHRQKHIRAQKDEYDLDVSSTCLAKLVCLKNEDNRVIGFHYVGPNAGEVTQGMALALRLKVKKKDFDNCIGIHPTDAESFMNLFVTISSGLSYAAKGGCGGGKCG
- protocolText: Inhibition of Plasmodium falciparum TrxR
pIC50: −log10 of the molar value.
Listing of entries alongside the reported pIC50.
measuredProperty: pIC50

* O=[N+]([O-])c1ccc2nsnc2c1 | 5.00
* O=[N+]([O-])c1cc([N+](=O)[O-])cc(C(F)(F)F)c1 | 4.52
* O=[N+]([O-])c1cc(C(F)(F)F)ccc1Sc1ccc(C(F)(F)F)cc1[N+](=O)[O-] | 4.70
* O=[N+]([O-])c1ccc2c(c1[N+](=O)[O-])OCO2 | 5.00
* O=[N+]([O-])c1cccc2nsnc12 | 5.70
* O=[N+]([O-])c1cc(C(F)(F)F)cc([N+](=O)[O-])c1Cl | 5.10
* O=[N+]([O-])c1ccc2nccnc2c1 | 4.40
* O=[N+]([O-])c1cc2nccnc2cc1[N+](=O)[O-] | 5.70
